B1: TPR 5TU (parent)
chain: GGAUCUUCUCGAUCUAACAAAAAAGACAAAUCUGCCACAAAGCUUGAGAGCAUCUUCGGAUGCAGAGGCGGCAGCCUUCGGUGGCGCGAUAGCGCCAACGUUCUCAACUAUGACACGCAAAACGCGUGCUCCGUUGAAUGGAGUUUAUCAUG

Variants of: B1
method-notes: polymerase ribozyme fitness, log enrichment relative to wild type (log ratio); higher = more active; in vitro selection for triplet polymerase activity
Variants at the floor of the assay were thinned out.
Recorded polymerase ribozyme fitness (log ratio) for the following variants

For record C76A C85G C87U G141C A142C the listed polymerase ribozyme fitness (log ratio) is ≤ -4.2

For record G48C C79A G86U C96U G124A the listed polymerase ribozyme fitness (log ratio) is ≤ -4.2
